Data origin, for the record: patent US20220119513A1

# Measured on: T1, TGFβ3 (R&D Systems) (Homo sapiens (Human), UniProt P10600 301-412, Active TGFβ3 is a disulfide-linked homodimer of this chain; one copy is given.)
# T1 sequence: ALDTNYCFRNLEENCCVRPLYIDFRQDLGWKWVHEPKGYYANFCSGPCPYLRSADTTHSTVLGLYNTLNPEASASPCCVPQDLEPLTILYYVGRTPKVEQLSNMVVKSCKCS
# Protocol: cell-based or functional assay
CMVIC pSmad-3, IC50 by entry:

Binder	CMVIC pSmad-3, IC50 / nM
Can04H09 VH2/VL4 (antibody, V domains shown) VH: EVQLVQSAAEVKKPGASVKVSCKTSGYSFTSSWMNWVQQAPGKGLDWMGQIYPGDGDTNYNGKFKGRVTLTADKSTSTAYMELSSLRSEDAAVYYCARHYDGSTDYWGQGTLVTVSS VL: EIVMTQSPASLSLSQGEKVTITCRASENIYSNLAWYQQRPGQAPKLLIYAATNLADGVPSRFSGSGSGTDFSLTISSLEPEDVAVYYCQHFWGTPYTFGQGTK	69.5
Can04H09 VH1/VL3 (antibody, V domains shown) VH: EVQLVQSGAEVKKPGASVKVSCKTSGYTFISSWMNWVRQAPGAGLDWMGQIYPGDGDTNYNGKFKGRVTLTADTSTSTAYMELSSLRAGDIAVYYCARHYDGSTDYWGQGTLVTVSS VL: EIVMTQSPASLSLSQEEKVTITCRASENIYSNLAWYQQKPGQAPKLLIYAATNLADGVPSRFSGSGSGTDFSFTISSLEPEDVAVYYCQHFWGTPYTFGQGTK	467
chi04H09 (mouse-dog) (antibody, V domains shown, also called mouse:canine 04H09 chimera) VH: QVQLQQSGAELVKPGASVKISCKASGYAFSSSWMNWVKQRPGKGLEWIGQIYPGDGDTNYNGKFKGKATLTADKSSSTAYMQLSSLTSEDSAVYFCARHYDGSTDYWGQGTTLTVSS VL: DIQMTQSPASLSVSVGETVTITCRASENIYSNLAWYQQKQGKSPQLLVYAATNLADGVPSRFSGSGSGTQYSLKINSLQSEDFGSYYCQHFWGTPYTFGGGTKLEIKR	66.5
